assay: Pharmacokinetic study in C57Bl6 mice; format: in vivo; conditions: mouse, oral gavage, plasma, prodrug, read-out: Prodrug T1/2 (converted)
Where a name gives a salt, the structure may show the parent alone.
Doc: threshold 1 h (exclusive). Items with half-life beneath it return YES; others return NO.

IN: Take the molecule [2H]C([2H])(CCS(=O)(=O)O)NC(=O)[C@@H](N)Cc1c[nH]cn1 [Compound 6, hydrochloride] and say whether its half-life is less than 1 h.
OUT: NO

IN: Again, but for C[C@H](N)C(=[18O])NCCCS(=O)(=O)O
OUT: YES

IN: Same lookup for [2H]C([2H])(CCS(=O)(=O)O)NC(=O)[C@@H](N)C(C)C , please.
OUT: NO

IN: // query: N[C@@H](Cc1c[nH]cn1)C(=[18O])NCCCS(=O)(=O)O [Compound 17, hydrobromide]
OUT: NO

IN: Another: N[C@@H](Cc1ccccc1)C(=[18O])NCCCS(=O)(=O)O
OUT: NO

IN: Please give the result for [2H]C([2H])(CCS(=O)(=O)O)NC(=O)[C@@H](N)Cc1ccccc1 too.
OUT: YES

IN: Here is the next molecule: [2H]C([2H])(CCS(=O)(=O)O)NC(=O)[C@@H](N)CO
OUT: NO

IN: Cool, now [2H]C([2H])(CCS(=O)(=O)O)NC(=O)[C@H](C)N
OUT: YES

---

For each entry below, report its Remaining (%) at 4 h value.
assay: Compound stability in simulated gastric fluid (SGF); assay type: in vitro ADME; conditions: 400 μg/mL, 37° C., percentage of initial concentration, LC-MS/MS
Counter-ions that a name gives are not always drawn.
Answers are plain numbers, in %.

>>> df
                                   compound  result_value
0  [2H]C([2H])(CCS(=O)(=O)O)NC(=O)[C@@H](N)C(C)C           107
1  [2H]C([2H])(CCS(=O)(=O)O)NC(=O)[C@@H](N)Cc1ccccc1            99
2      CC(C)[C@H](N)C(=[18O])NCCCS(=O)(=O)O           104
3  N[C@@H](Cc1ccccc1)C(=[18O])NCCCS(=O)(=O)O            96

IN: What Remaining (%) at 4 h value was documented for this compound, N[C@@H](Cc1c[nH]cn1)C(=[18O])NCCCS(=O)(=O)O [Compound 17, hydrobromide] ?
OUT: 101

---

For each record, write down the corresponding Cmax.
assay: Pharmacokinetic study in C57Bl6 mice; type: in vivo; conditions: mouse, oral gavage, plasma, prodrug
Where a name gives a salt, the structure may show the parent alone.
Give bare numbers, in ng/mL.

Worked examples follow.
>>> print(df.to_string())
                                   compound  assay_endpoint  readout_units  result_value
0  [2H]C([2H])(CCS(=O)(=O)O)NC(=O)[C@@H](N)CO            Cmax          ng/mL         22300
1  N[C@@H](Cc1c[nH]cn1)C(=[18O])NCCCS(=O)(=O)O [Compound 17, hydrobromide]            Cmax          ng/mL         19000
2  [2H]C([2H])(CCS(=O)(=O)O)NC(=O)[C@H](C)N            Cmax          ng/mL           472
3  [2H]C([2H])(CCS(=O)(=O)O)NC(=O)[C@@H](N)C(C)C            Cmax          ng/mL         39500
4  [2H]C([2H])(CCS(=O)(=O)O)NC(=O)[C@@H](N)Cc1c[nH]cn1 [Compound 6, hydrochloride]            Cmax          ng/mL          9920
5          C[C@H](N)C(=[18O])NCCCS(=O)(=O)O            Cmax          ng/mL           672
6  [2H]C([2H])(CCS(=O)(=O)O)NC(=O)[C@@H](N)Cc1ccccc1            Cmax          ng/mL          1090

Please find the next compound below.
IN: Recorded Cmax of N[C@@H](Cc1ccccc1)C(=[18O])NCCCS(=O)(=O)O , please.
OUT: 3840
